# System: STAT5 Y694 phosphorylation
# assayNotes: Protein electrophoresis and blotting of STAT5 Y694 phosphorylation in Jurkat cells stimulated with human interferon beta
# Assay type: cell-based
# testParameters: observed pSTAT5 bands at 10 μM and 100 μM
# Text: Example of Effect 1: Protein Electrophoresis and Blotting Experiment Standard protein electrophoresis and chemiluminescence imaging equipment (Bio-Rad); Protein lysate RIPA (Lianke Biological; Cat #WB020); Western blot transfer membrane PVDF (Millipore; Cat #IPVH00010); […]
measuredAttribute: Example of Effect 1: Inhibiting Ability (Protein Electrophoresis and Blotting)

In the examples that follow, each entry is paired with its recorded Example of Effect 1: Inhibiting Ability (Protein Electrophoresis and Blotting).
{"columns": ["compound", "recordedValue"],
 "data": [
  ["O=C(CC12CC3CC(CC(C3)C1)C2)N1CCC(n2c(=O)[nH]c3ccccc32)CC1 [GEN1-098]", "+"],
  ["O=C(Cc1ccc(C(F)(F)F)cc1)N1CCC2(CC1)C(=O)Nc1ccccc12 [GEN1-167]", "+"],
  ["O=C(Cc1ccccc1C(F)(F)F)N1CCC(n2c(=O)[nH]c3ccccc32)CC1 [GEN1-030]", "−"],
  ["O=C(Cc1ccncc1)N1CCC(n2c(=O)[nH]c3ccccc32)CC1 [Example X3]", "−"],
  ["O=C(Cc1ccc(C(F)(F)F)cc1)N1CCC(N2C/C(=N\\O)Nc3ccccc32)CC1 [GEN1-150]", "−"]
]}

Specify Example of Effect 1: Inhibiting Ability (Protein Electrophoresis and Blotting) for NC(=O)N(c1ccccn1)C1CCN(C(=O)Cc2ccc(C(F)(F)F)cc2)CC1 [GEN1-164] and stop.
−

Please supply the value of reported Example of Effect 1: Inhibiting Ability (Protein Electrophoresis and Blotting) for the item O=C1Nc2ccccc2C1C1CCN(C(=O)Cc2ccc(C(F)(F)F)cc2)CC1 (centres unmarked) [GEN1-051]
+

Look up and state reported Example of Effect 1: Inhibiting Ability (Protein Electrophoresis and Blotting) for CC(C)(C)c1ccc(CC(=O)N2CCC(n3c(=O)[nH]c4cccc(C(F)(F)F)c43)CC2)cc1 [GEN1-115]
+

For the compound O=C(Cc1ccc2c(c1)OCO2)N1CCC(n2c(=O)[nH]c3ccccc32)CC1 [GEN1-096] , give its measured Example of Effect 1: Inhibiting Ability (Protein Electrophoresis and Blotting) value.
+

Using the record for O=C(Cc1c[nH]c2ccccc12)N1CCC(n2c(=O)[nH]c3cccc(C(F)(F)F)c32)CC1 [GEN1-169] , state its measured Example of Effect 1: Inhibiting Ability (Protein Electrophoresis and Blotting).
+

Determine from records and report Example of Effect 1: Inhibiting Ability (Protein Electrophoresis and Blotting) for COc1ccc(CC(=O)N2CCC(n3c(=O)[nH]c4ccccc43)CC2)cc1 [GEN1-070]
−

Entry O=C(Cc1ccc(C(F)(F)F)cc1)N1CCC(n2c(=O)[nH]c3ccc(C4CC4)cc32)CC1 [GEN1-089] needs its Example of Effect 1: Inhibiting Ability (Protein Electrophoresis and Blotting) filled in; supply it.
+

Please indicate Example of Effect 1: Inhibiting Ability (Protein Electrophoresis and Blotting) recorded for O=C(Cc1ccc(C(F)(F)F)cc1)NCC1Cc2cccc3[nH]c(=O)n(c23)C1 (centres unmarked) [GEN1-065]
−

Please list Example of Effect 1: Inhibiting Ability (Protein Electrophoresis and Blotting) recorded for the compound O=C(Cc1ccc(C(F)(F)F)cc1)N1CCC(Cn2c(=O)[nH]c3cccc(C(F)(F)F)c32)CC1 [GEN1-174]
+

Output Example of Effect 1: Inhibiting Ability (Protein Electrophoresis and Blotting) of CCC(=O)N1CCC(n2c(=O)oc3ccccc32)CC1 [Example P1]
−
